Taken from patent US9156877B2.

TEST DESCRIPTION: Solubility in aqueous medium at pH 7.4
Assay type: physicochemical
TEST SETTINGS: aqueous medium, pH 7.4, aqueous buffer
Assign class by solubility: not lower than 10 µg/mL means fulfilled; lower than 10 µg/mL means not fulfilled.

# MOLECULE, ASSIGNED LABEL
data = [
    ("C[C@]12C[C@H](c3cccc(/C=C/c4cccnc4)c3)C3=C4CCC(=O)C=C4CC[C@H]3[C@@H]1CC[C@@]2(O)C(F)(F)C(F)(F)F", "not fulfilled"),
    ("Cc1nc(/C=C/c2ccc([C@H]3C[C@@]4(C)[C@@H](CC[C@@]4(O)C(F)(F)C(F)(F)F)[C@@H]4CCC5=CC(=O)CCC5=C43)cc2)cs1", "not fulfilled"),
    ("C[C@]12C[C@H](c3ccc(/C=C/CO)cc3)C3=C4CCC(=O)C=C4CC[C@H]3[C@@H]1CC[C@@]2(O)C(F)(F)C(F)(F)F", "fulfilled"),
    ("CCO/N=C/c1ccc([C@H]2C[C@@]3(C)[C@@H](CC[C@@]3(O)C(F)(F)C(F)(F)F)[C@@H]3CCC4=CC(=O)CCC4=C32)cc1", "not fulfilled"),
    ("C=CC=Cc1ccc([C@H]2C[C@@]3(C)C(CC[C@@]3(O)C(F)(F)C(F)(F)F)C3CCC4=CC(=O)CCC4=C32)cc1 (mixture of isomers)", "not fulfilled"),
]

* * *

TEST DESCRIPTION: Solubility in aqueous medium at pH 7.4
Format: physicochemical
TEST SETTINGS: aqueous medium, pH 7.4, aqueous buffer

# COMPOUND, SIGN, solubility [µg/mL]
rows = [
    ("C=Cc1ccc([C@H]2C[C@@]3(C)[C@@H](CC[C@@]3(O)C(F)(F)C(F)(F)F)[C@@H]3CCC4=CC(=O)CCC4=C32)cc1 [Example 1]", "=", 6),
    ("C[C@]12C[C@H](c3ccc(/C=C/C(=O)O)cc3)C3=C4CCC(=O)C=C4CC[C@H]3[C@@H]1CC[C@@]2(O)C(F)(F)C(F)(F)F [Example 13]", ">", 179),
    ("Cc1nc2cc(/C=C/c3ccc([C@H]4C[C@@]5(C)[C@@H](CC[C@@]5(O)C(F)(F)C(F)(F)F)[C@@H]5CCC6=CC(=O)CCC6=C54)cc3)ccc2s1 [Example 10]", "=", 8),
    ("C[C@]12C[C@H](c3cccc(/C=C/c4ccncc4)c3)C3=C4CCC(=O)C=C4CC[C@H]3[C@@H]1CC[C@@]2(O)C(F)(F)C(F)(F)F [Example 23]", "=", 8),
    ("C[C@]12C[C@H](c3ccc(/C=C/CC(C(=O)O)C(=O)O)cc3)C3=C4CCC(=O)C=C4CC[C@H]3[C@@H]1CC[C@@]2(O)C(F)(F)C(F)(F)F [Example 5]", "=", 203),
    ("C[C@]12C[C@H](c3ccc(/C=C/C=C/C(=O)O)cc3)C3=C4CCC(=O)C=C4CC[C@H]3[C@@H]1CC[C@@]2(O)C(F)(F)C(F)(F)F [Example 17]", ">", 188),
    ("C[C@]12C[C@H](c3ccc(/C=C/CC(C#N)C#N)cc3)C3=C4CCC(=O)C=C4CCC3C1CC[C@@]2(O)C(F)(F)C(F)(F)F (stereo partly shown) [Example 27]", "=", 10),
]
